Hey, just so you know, these numbers are from paper PMC12114510.

Target: α-glucosidase
Test: α-Glucosidase inhibition assay (PNPG method)
Assay type: biochemical
Settings: mean ± SD; PNPG method; 5 and 6 tested as epimeric mixtures
Method: The inhibitory activity of the obtained compounds on α-glucosidase was evaluated using the method mentioned in previous studies with minor modifications. […] Subsequently, 50 μL of 5.0 mM p-Nitrophenyl α-D-glucopyranoside (pNPG, dissolved in 0.1 M PB, pH 6.8) was added to the mixture. […] The absorbance value was measured at 405 nm using a microplate reader. […] Ac: Absorbance of the reaction system containing 20 μL PBS, 50 μL α-glucosidase, and 50 μL pNPG.
Lab note - cut at 40 µg/mL for IC50, inhibition of α-glucosidase: 1 if strictly below, -1 if not.

>>> assigned_category("C=C(C)C(O)Cc1cc(C(=O)OC(C)C(C)(O)C(=O)O)cc(CC=C(C)C)c1O (centres unmarked) [Compound 5, Oberoniaensiformisin E]")
-1
>>> assigned_category("CC(C)=CCc1cc(C(=O)O)cc2c1OC(C(C)(C)O)C2 (centres unmarked) [Compound 15, oberoniamyosurusins I]")
1
>>> assigned_category("CC(C)=CCc1cc(C(=O)O)cc(CC=C(C)C)c1O [Compound 12, nervogenic acid]")
1
>>> assigned_category("CC(C)=CCc1cc(C(=O)O[C@@H]2CC(C(=O)O)=C[C@@H](O)[C@H]2O)cc2c1OC(C)(C)C=C2 [Compound 13, oberoniamyosurusin L]")
-1
>>> assigned_category("C=C(C)C(O)Cc1cc(C(=O)O[C@@H]2CC(C(=O)O)=C[C@@H](O)[C@H]2O)cc(CC=C(C)C)c1O (some centres unmarked) [Compound 6, oberoniaensiformisin F]")
-1

* * *

System: α-glucosidase
Assay: α-Glucosidase inhibition assay (PNPG method)
Format: biochemical
Protocol: The inhibitory activity of the obtained compounds on α-glucosidase was evaluated using the method mentioned in previous studies with minor modifications. […] Subsequently, 50 μL of 5.0 mM p-Nitrophenyl α-D-glucopyranoside (pNPG, dissolved in 0.1 M PB, pH 6.8) was added to the mixture. […] The absorbance value was measured at 405 nm using a microplate reader. […] Ac: Absorbance of the reaction system containing 20 μL PBS, 50 μL α-glucosidase, and 50 μL pNPG.
test_readout: inhibitory activity against α-glucosidase (in words)

>>> endpoint_value("C=C(C)C(O)Cc1cc(C(=O)O)cc2c1OC(C)(C)C=C2 (stereo not shown)")
"no significant activity"
>>> endpoint_value("C=C(C)C(O)Cc1cc(C(=O)O[C@@H]2CC(C(=O)O)=C[C@@H](O)[C@H]2O)cc(CC=C(C)C)c1O (stereo partly shown)")
"moderate"
>>> endpoint_value("CC(C)(O)CCc1cc(C(=O)O)cc(CCC(C)(C)O)c1O")
"no significant activity"
>>> endpoint_value("CC(C)=CCc1cc(C(=O)O)cc(CC=C(C)C)c1O")
"strong"
>>> endpoint_value("CC(C)(O)CCc1cc(C(=O)O)cc2c1OC(C)(C)C=C2")
"no significant activity"
>>> endpoint_value("CC(C)=CCc1cc(C(=O)O[C@@H]2CC(C(=O)O)=C[C@@H](O)[C@H]2O)cc2c1OC(C)(C)C=C2")
"moderate"
>>> endpoint_value("C=C(C)C(O)Cc1cc(C(=O)O)cc(CC(O)C(=C)C)c1O (stereo not shown)")
"no significant activity"
>>> endpoint_value("C=C(C)C(O)Cc1cc(C(=O)O)cc(CCC(C)(C)O)c1O (stereo not shown)")
"no significant activity"
>>> endpoint_value("C=C(C)C(O)Cc1cc(C(=O)OC(C)C(C)(O)C(=O)O)cc(CC=C(C)C)c1O (stereo not shown)")
"weak"
>>> endpoint_value("CC(C)=CCc1cc(C(=O)O)cc2c1OC(C(C)(C)O)C2 (stereo not shown)")
"strong"
